# credit: the supplement of paper PMC10567573

protein stability index reference
B1: DCAF4 (parent)
chain: PGIDRPGMLCSFRIPGAWSCAWSL

Variants of: B1
assay name: protein stability index of a GFP-peptide fusion (GPS, HEK-293T) (PSI 1-6); higher = more stable;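 also: lentivirally expressed fusions sorted by FACS into six bins by GFP to DsRed ratio, PSI derived from sequencing read proportions per bin multiplied by bin number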
conditions: c terminus: a fixed tail appended
Answer using only a numeral; do not append any unit.

Consider the reported protein stability index for these variants:
| variant spec | assay endpoint | recorded number |
| --- | --- | --- |
| P1M | protein stability index | 3.39 |
| C20L | protein stability index | 3.41 |
| G7T | protein stability index | 3.46 |
| R13I | protein stability index | 3.22 |
| A17N | protein stability index | 2.48 |
| W18Y | protein stability index | 3.06 |
| S19W | protein stability index | 4.15 |
| A17M | protein stability index | 3.08 |

Note protein stability index for the variant shown: P1A
1.93

Note protein stability index for the variant shown: G2V
1.85

Note protein stability index for the variant shown: C20G
2.95
